- PROCEDURE SUMMARY: physchem
- CONDITION INFO: water
- Description: Solubility of the compound in water at 25 degC by reversed phase HPLC analysis
ENDPOINT LABEL: solubility (µg/mL)

[[record]]
entry_smiles = "CC(=O)O[C@@]12CO[C@@H]1C[C@H](O)[C@@]1(C)C(=O)[C@H](O)C3=C(C)[C@@H](OC(=O)[C@H](O)[C@@H](NC(=O)OC(C)(C)C)c4cccc(CO)c4)C[C@@](O)([C@@H](OC(=O)c4cccc(OC(F)(F)F)c4)[C@H]21)C3(C)C"
meas_value = 11.1

[[record]]
entry_smiles = "CC(=O)O[C@@]12CO[C@@H]1C[C@H](O)[C@@]1(C)C(=O)[C@H](O)C3=C(C)[C@@H](OC(=O)[C@H](O)[C@@H](NC(=O)OC(C)(C)C)c4cccc(C#CCO)c4)C[C@@](O)([C@@H](OC(=O)c4ccccc4)[C@H]21)C3(C)C"
meas_value = 19.2

[[record]]
entry_smiles = "CC(=O)O[C@@]12CO[C@@H]1C[C@H](O)[C@@]1(C)C(=O)[C@H](O)C3=C(C)[C@@H](OC(=O)[C@H](O)[C@@H](NC(=O)OC(C)(C)C)c4cccc(CO)c4)C[C@@](O)([C@@H](OC(=O)c4ccccc4)[C@H]21)C3(C)C"
meas_value = 9.5

[[record]]
entry_smiles = "CC(=O)O[C@@]12CO[C@@H]1C[C@H](O)[C@@]1(C)C(=O)[C@H](O)C3=C(C)[C@@H](OC(=O)[C@H](O)[C@@H](NC(=O)OC(C)(C)C)c4cccc(CN(C)C)c4)C[C@@](O)([C@@H](OC(=O)c4ccccc4)[C@H]21)C3(C)C"
meas_value = 24.4

[[record]]
entry_smiles = "CC(=O)O[C@@]12CO[C@@H]1C[C@H](O)[C@@]1(C)C(=O)[C@H](O)C3=C(C)[C@@H](OC(=O)[C@H](O)[C@@H](NC(=O)OC(C)(C)C)c4cccc(CO)c4)C[C@@](O)([C@@H](OC(=O)c4cccc(C#N)c4)[C@H]21)C3(C)C"
meas_value = 11.2

[[record]]
entry_smiles = "CC(=O)O[C@@]12CO[C@@H]1C[C@H](O)[C@@]1(C)C(=O)[C@H](O)C3=C(C)[C@@H](OC(=O)[C@H](O)[C@@H](NC(=O)OC(C)(C)C)c4cccc(CCO)c4)C[C@@](O)([C@@H](OC(=O)c4ccccc4)[C@H]21)C3(C)C"
meas_value = 28.9

[[record]]
entry_smiles = "CC(=O)O[C@@]12CO[C@@H]1C[C@H](O)[C@@]1(C)C(=O)[C@H](O)C3=C(C)[C@@H](OC(=O)[C@H](O)[C@@H](NC(=O)OC(C)(C)C)c4cccc(C=O)c4)C[C@@](O)([C@@H](OC(=O)c4ccccc4)[C@H]21)C3(C)C"
meas_value = 9.3

[[record]]
entry_smiles = "CC(=O)O[C@@]12CO[C@@H]1C[C@H](O)[C@@]1(C)C(=O)[C@H](O)C3=C(C)[C@@H](OC(=O)[C@H](O)[C@@H](NC(=O)OC(C)(C)C)c4cccc(/C=C\\CO)c4)C[C@@](O)([C@@H](OC(=O)c4ccccc4)[C@H]21)C3(C)C"
meas_value = 18.6

[[record]]
entry_smiles = "COCOc1cccc([C@H](NC(=O)OC(C)(C)C)[C@@H](O)C(=O)O[C@H]2C[C@@]3(O)[C@@H](OC(=O)c4ccccc4)[C@@H]4[C@]5(OC(C)=O)CO[C@@H]5C[C@H](O)[C@@]4(C)C(=O)[C@H](O)C(=C2C)C3(C)C)c1"
meas_value = 14.3

[[record]]
entry_smiles = "CC(=O)O[C@@]12CO[C@@H]1C[C@H](O)[C@@]1(C)C(=O)[C@H](O)C3=C(C)[C@@H](OC(=O)[C@H](O)[C@@H](NC(=O)OC(C)(C)C)c4cccc(/C=C/CO)c4)C[C@@](O)([C@@H](OC(=O)c4ccccc4)[C@H]21)C3(C)C"
meas_value = 13.7

[[record]]
entry_smiles = "COc1ccc(OC)c(C(=O)O[C@H]2[C@@H]3[C@]4(OC(C)=O)CO[C@@H]4C[C@H](O)[C@@]3(C)C(=O)[C@H](O)C3=C(C)[C@@H](OC(=O)[C@H](O)[C@@H](NC(=O)OC(C)(C)C)c4cccc(CO)c4)C[C@]2(O)C3(C)C)c1"
meas_value = 12.5

[[record]]
entry_smiles = "COCOc1cccc(C(=O)O[C@H]2[C@@H]3[C@]4(OC(C)=O)CO[C@@H]4C[C@H](O)[C@@]3(C)C(=O)[C@H](O)C3=C(C)[C@@H](OC(=O)[C@H](O)[C@@H](NC(=O)OC(C)(C)C)c4cccc(CO)c4)C[C@]2(O)C3(C)C)c1"
meas_value = 14.9

[[record]]
entry_smiles = "CC(=O)O[C@@]12CO[C@@H]1C[C@H](O)[C@@]1(C)C(=O)[C@H](O)C3=C(C)[C@@H](OC(=O)[C@H](O)[C@@H](NC(=O)OC(C)(C)C)c4cccc(CO)c4)C[C@@](O)([C@@H](OC(=O)c4cccc(N=[N+]=[N-])c4)[C@H]21)C3(C)C"
meas_value = 12.6

[[record]]
entry_smiles = "CC(=O)O[C@@]12CO[C@@H]1C[C@H](O)[C@@]1(C)C(=O)[C@H](O)C3=C(C)[C@@H](OC(=O)[C@H](O)[C@@H](NC(=O)OC(C)(C)C)c4cccc(C(=O)O)c4)C[C@@](O)([C@@H](OC(=O)c4ccccc4)[C@H]21)C3(C)C"
meas_value = 40.6

[[record]]
entry_smiles = "COc1cccc(C(=O)O[C@H]2[C@@H]3[C@]4(OC(C)=O)CO[C@@H]4C[C@H](O)[C@@]3(C)C(=O)[C@H](O)C3=C(C)[C@@H](OC(=O)[C@H](O)[C@@H](NC(=O)OC(C)(C)C)c4cccc(CO)c4)C[C@]2(O)C3(C)C)c1"
meas_value = 10.9

